test: Protein binding in CD-1 mouse plasma incubated for 4 hrs by equilibrium dialysis based LC-MS/MS analysis; format: ADME, cell-free; details: CD-1, mouse, read-out: PPB (converted)
propertyLabel: fraction unbound at 4 h

Which fraction unbound at 4 h is listed for `COc1cc2nc3n(c(=O)c2cc1Cl)CC[C@@H]1[C@@H]3CCCN1CC1COC1` ?
0.26

* * *

test system: Naegleria fowleri; assay: Anti-ameobic activity against Naegleria fowleri Nf69 (ATCC 30215) trophozoites assessed as inhibition of amoeba growth incubated for 48 hrs by CellTiter-Glo assay; assay type: functional, organism-based; details: Naegleria fowleri, Nf69 (ATCC 30215), 48 h
pEC50: −log10 of the molar value.
Tick Fulfilled if pEC50 is 7 or greater. Tick Not fulfilled if pEC50 is less than 7.

CN1CCC[C@@H]2c3nc4cc(C(F)(F)F)ccc4c(=O)n3CC[C@H]21 (racemic) | Not fulfilled
CC(C)CN1CCC[C@@H]2c3nc4cc(Cl)c(Cl)cc4c(=O)n3CC[C@H]21 (racemic) | Fulfilled
O=c1c2cc(Cl)c(Cl)cc2nc2n1CC[C@@H]1[C@@H]2CCCN1Cc1cnccn1 (racemic) | Fulfilled
CN1CCC[C@@H]2c3nc4cc(Cl)c(C(F)(F)F)cc4c(=O)n3CC[C@H]21 (racemic) | Not fulfilled
COc1cc2nc3n(c(=O)c2cc1C#N)CC[C@@H]1[C@@H]3CCCN1C (racemic) | Not fulfilled

Item O=C(N1CCOCC1)N1CCC[C@@H]2c3nc4cc(Cl)c(Cl)cc4c(=O)n3CC[C@H]21 (racemic) with pEC50 of 7 or above?
Not fulfilled

Item O=c1c2cc(Cl)c(Cl)cc2nc2n1CC[C@@H]1[C@@H]2CCCN1Cc1ccccn1 (racemic) with pEC50 of 7 or above?
Not fulfilled

Item CN1CCC[C@H]2c3nc4ccc(C(F)(F)F)cc4c(=O)n3CC[C@H]21 (racemic) with pEC50 of 7 or above?
Not fulfilled
